All figures here come from the supplement of paper PMC10567573.

# protein stability index annotations
B1: PSD2 (parent)
chain: PLMGETQERERVLTHFSRRYCQCN

Variants of: B1
TEST_PROTOCOL: protein stability index of a GFP-peptide fusion (GPS, HEK-293T) (PSI 1-6); higher = more stable;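 note: lentivirally expressed fusions sorted by FACS into six bins by GFP to DsRed ratio, PSI derived from sequencing read proportions per bin multiplied by bin number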
CONDITION_DESCRIPTION: c terminus: a fixed tail appended
PARAMETER_MEASURED: protein stability index

ORDERED_RESIDUES: PLMGETQERERVLTHFSRRYMQCN
ASSAY_RESULT: 3.61
--
ORDERED_RESIDUES: PLMGETQERERVLTHFSRRYCPCN
ASSAY_RESULT: 2.71
--
ORDERED_RESIDUES: PLMGETQYRERVLTHFSRRYCQCN
ASSAY_RESULT: 1.79
--
ORDERED_RESIDUES: PLMGRTQERERVLTHFSRRYCQCN
ASSAY_RESULT: 2.39
--
ORDERED_RESIDUES: PLMGETQERERWLTHFSRRYCQCN
ASSAY_RESULT: 3.26
--
ORDERED_RESIDUES: PLPGETQERERVLTHFSRRYCQCN
ASSAY_RESULT: 2.72
--
ORDERED_RESIDUES: PLMGETQERERVLTHFSRHYCQCN
ASSAY_RESULT: 3.24
--
ORDERED_RESIDUES: PLMGETQERIRVLTHFSRRYCQCN
ASSAY_RESULT: 2.1
--
ORDERED_RESIDUES: PLMGETQERERVLTHFSRRECQCN
ASSAY_RESULT: 4.57
--
ORDERED_RESIDUES: PLMGETQERERVLTHFSRRVCQCN
ASSAY_RESULT: 4.11
--
ORDERED_RESIDUES: PLMGETQERERTLTHFSRRYCQCN
ASSAY_RESULT: 3.73
--
ORDERED_RESIDUES: PLMFETQERERVLTHFSRRYCQCN
ASSAY_RESULT: 2.31
--
ORDERED_RESIDUES: PLMGETQMRERVLTHFSRRYCQCN
ASSAY_RESULT: 1.62
--
ORDERED_RESIDUES: PLMGETQERERVLTHFSRRYCQFN
ASSAY_RESULT: 3.18
--
ORDERED_RESIDUES: PLMGETQERERVLTHFSRRMCQCN
ASSAY_RESULT: 2.69
--
ORDERED_RESIDUES: PLMGETQERERVLTHFSRRSCQCN
ASSAY_RESULT: 3.84
--
ORDERED_RESIDUES: PLMGETQERERVLTHFSRRYCQNN
ASSAY_RESULT: 4.07
--
ORDERED_RESIDUES: PLMDETQERERVLTHFSRRYCQCN
ASSAY_RESULT: 3.24
--
ORDERED_RESIDUES: PLMGETQCRERVLTHFSRRYCQCN
ASSAY_RESULT: 2.17
--
ORDERED_RESIDUES: PLMGETQERERVLTHFSRRYGQCN
ASSAY_RESULT: 4.23
--
ORDERED_RESIDUES: PLMGETQERERVLTHFSRRYCQIN
ASSAY_RESULT: 2.99
--
ORDERED_RESIDUES: PLMGEHQERERVLTHFSRRYCQCN
ASSAY_RESULT: 3.15
